Measured viability, T/C accompanies every entry in the list below.
Test system: NCI-H719 tumor spheroids, viability
procedureText: Anticancer human tumor NCI-H719 cell line growth inhibition;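 also: spheroids exposed to compounds for seven days; percent viability relative to DMSO vehicle control as 100%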
protocolConditions: second compound 3.16 µM; first compound 0.949 µM; hits give low values; spheroids with HUVEC and MSC

[
  {
    "molecule": "CNCc1ccc(-c2cc(-c3nc(-c4ccc(S(=O)(=O)C(C)C)cc4)cnc3N)on2)cc1 + Cn1nnc2c(C(N)=O)ncn2c1=O",
    "viability, T/C": "9.22%"
  },
  {
    "molecule": "Cc1sc2c(c1C)C(c1ccc(Cl)cc1)=NC(CC(=O)Nc1ccc(O)cc1)c1nnc(C)n1-2 (centres undefined) + Cn1nnc2c(C(N)=O)ncn2c1=O",
    "viability, T/C": "4.84%"
  },
  {
    "molecule": "Cn1ncnc1[C@H]1c2n[nH]c(=O)c3cc(F)cc(c23)N[C@@H]1c1ccc(F)cc1 + Cn1nnc2c(C(N)=O)ncn2c1=O",
    "viability, T/C": "7.41%"
  },
  {
    "molecule": "O=C(c1cc(Cc2n[nH]c(=O)c3ccccc23)ccc1F)N1CCN(C(=O)C2CC2)CC1 + Cn1nnc2c(C(N)=O)ncn2c1=O",
    "viability, T/C": "67%"
  }
]
